Target: Cytochrome P450 1A2 (Homo sapiens, UniProt P05177)
Sequence (P05177 whole entry): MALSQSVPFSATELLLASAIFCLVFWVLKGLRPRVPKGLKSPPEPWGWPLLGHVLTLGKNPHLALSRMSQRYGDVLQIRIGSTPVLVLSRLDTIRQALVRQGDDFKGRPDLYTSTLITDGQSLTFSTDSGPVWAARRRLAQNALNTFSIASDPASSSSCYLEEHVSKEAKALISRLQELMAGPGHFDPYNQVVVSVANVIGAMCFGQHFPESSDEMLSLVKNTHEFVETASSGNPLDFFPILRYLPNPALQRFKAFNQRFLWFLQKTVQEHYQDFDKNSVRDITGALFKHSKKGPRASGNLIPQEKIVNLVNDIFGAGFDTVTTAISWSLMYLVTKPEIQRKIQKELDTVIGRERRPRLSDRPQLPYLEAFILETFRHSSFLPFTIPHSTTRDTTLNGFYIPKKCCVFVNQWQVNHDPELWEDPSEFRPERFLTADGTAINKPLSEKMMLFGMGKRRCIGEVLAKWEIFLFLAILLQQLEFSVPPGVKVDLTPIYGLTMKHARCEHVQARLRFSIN
assay readout: IC50

GET /values?readout=IC50&item= COc1cc(-c2ncc(COc3cccc([C@@H](CC(=O)O)C4CC4)c3)nc2CC(C)C)c(F)cn1 > 10 µM
